Target: human recombinant Aminopeptidase N (Homo sapiens)
Sequence (P15144 whole entry): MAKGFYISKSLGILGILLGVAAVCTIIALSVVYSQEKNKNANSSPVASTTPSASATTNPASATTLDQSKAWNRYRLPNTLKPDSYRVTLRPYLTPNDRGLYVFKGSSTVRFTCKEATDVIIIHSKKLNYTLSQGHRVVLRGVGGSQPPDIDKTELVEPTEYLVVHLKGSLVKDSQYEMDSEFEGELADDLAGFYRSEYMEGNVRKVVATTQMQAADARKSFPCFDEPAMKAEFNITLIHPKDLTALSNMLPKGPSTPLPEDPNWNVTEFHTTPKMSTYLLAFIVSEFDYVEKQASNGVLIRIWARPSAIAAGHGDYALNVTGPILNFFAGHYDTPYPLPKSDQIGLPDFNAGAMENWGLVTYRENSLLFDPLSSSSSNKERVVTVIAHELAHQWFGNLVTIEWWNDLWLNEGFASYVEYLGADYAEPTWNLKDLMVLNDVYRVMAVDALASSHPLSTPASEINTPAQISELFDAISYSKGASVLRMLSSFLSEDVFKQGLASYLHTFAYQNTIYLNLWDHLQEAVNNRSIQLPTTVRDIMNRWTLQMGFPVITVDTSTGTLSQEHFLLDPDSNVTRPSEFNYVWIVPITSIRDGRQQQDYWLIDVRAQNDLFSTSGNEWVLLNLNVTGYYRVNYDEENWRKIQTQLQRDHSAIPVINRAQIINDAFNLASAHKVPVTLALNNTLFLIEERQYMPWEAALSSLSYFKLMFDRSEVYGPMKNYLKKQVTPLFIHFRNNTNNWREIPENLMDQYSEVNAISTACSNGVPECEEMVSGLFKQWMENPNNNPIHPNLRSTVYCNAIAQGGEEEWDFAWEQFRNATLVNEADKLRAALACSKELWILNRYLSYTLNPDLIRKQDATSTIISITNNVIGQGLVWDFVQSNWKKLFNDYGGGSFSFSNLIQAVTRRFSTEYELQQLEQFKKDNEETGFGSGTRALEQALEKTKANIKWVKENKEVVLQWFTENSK
Assay: Measurement of APN activity (fluorogenic substrate (Ala)2-R110)
Format: biochemical
Settings: human recombinant APN approx. 5 nM, substrate 0.5 μM, pH 7.5
Listed here: items and their measured IC50.
Note: unit µM is implicit; provide only the numeric part.

Completed entries (count: 2):
{"compound": "CC(C)(CNC(=O)CC(N)Cc1cc(F)ccc1F)CNC(=O)C(O)C(N)Cc1ccc(-c2ccsc2)cc1 (stereo not drawn) [drawing 74]", "IC50 (µM)": 0.001}
{"compound": "NC(CC(=O)NCC1(CNC(=O)C(O)C(N)Cc2ccccc2)CCCC1)Cc1cc(F)ccc1F (stereo not drawn) [drawing 68]", "IC50 (µM)": 0.08}

Sure, the documented IC50 for CN(CCCNC(=O)OCc1ccccc1)C(=O)C(O)C(N)Cc1ccccc1 (stereo not drawn) [drawing 72] is 11.5
